Target or system VEGFR2 (cytoplasmic domain KDR protein) (Homo sapiens (Human), UniProt P35968): recorded IC50 listed per item.
Hi! Could you send only the number? It should be in nM, unit omitted.

Give its IC50 value. Item: Nc1n[nH]c2cccc(C#Cc3cccc(NC(=O)Nc4ccccc4)c3)c12 41

Also check Cc1ccc(F)c(NC(=O)Nc2ccc(C#Cc3cccc4[nH]nc(N)c34)cc2)c1 90

Also check CC(=O)Nc1cn2nc(C#Cc3ccc(NC(=O)Nc4cccc(C)c4)cc3)ccc2n1 3180
